Biological target: SARS-CoV-2 3CLpro (Severe acute respiratory syndrome coronavirus 2, UniProt P0DTD1)
pIC50: −log10 of the molar value.
quantity-kind: pIC50

* CNC(=O)c1cc(Br)cc([N+](=O)[O-])c1N[C@@H]1CN(C)CC[C@@H]1NC(=O)c1cncc2ccccc12 | 5.00 to 6.00
* CNC(=O)c1cc(Cl)cc([N+](=O)[O-])c1N[C@H]1CN(C(=O)c2cncc3cccnc23)CC[C@@H]1F | > 7.00
* CNC(=O)c1cc(Br)cc([N+](=O)[O-])c1N[C@H]1CN(C(=O)c2cncc3ccccc23)CCC1(F)F | > 7.00
* CNC(=O)c1cc(Br)cc([N+](=O)[O-])c1N[C@@H]1CN(C(C)=O)CC[C@@H]1NC(=O)c1cncc2ccccc12 | 5.00 to 6.00
* O=C(c1cc(Br)cc([N+](=O)[O-])c1N[C@H]1CN(C(=O)c2cncc3ccccc23)CCC1(F)F)N1CC(F)(F)C1 | > 7.00

====

pIC50: −log10 of the molar value.
// endpoint pIC50 / system SARS-CoV-2 3CLpro (Severe acute respiratory syndrome coronavirus 2)
quantity-kind: pIC50

* CNC(=O)c1cc(Cl)cc([N+](=O)[O-])c1N[C@H]1CN(C(=O)c2cncc3ccccc23)CC[C@@H]1F | > 7.00
* CNC(=O)c1cc(Br)cc([N+](=O)[O-])c1N[C@@H]1CCCC[C@@H]1NC(=O)c1cncc(C(F)(F)F)c1 | 5.00 to 6.00
* O=C(N[C@@H]1CCNC1)c1cc(Br)cc([N+](=O)[O-])c1N[C@H]1CN(C(=O)c2cncc3ccccc23)CCC1(F)F | > 7.00
* CNC(=O)c1cc(Br)cc([N+](=O)[O-])c1N[C@@H]1COCC[C@@H]1NC(=O)c1cncc2ccccc12 | > 7.00
* CNC(=O)c1cc(Cl)cc([N+](=O)[O-])c1N[C@H]1CN(C(=O)c2cncc3ncccc23)CCC1(F)F | > 7.00
* CNC(=O)c1cc(Br)cc([N+](=O)[O-])c1N[C@@H]1CCC(C)(C)N(C(=O)c2cncc3ccccc23)C1 | 6.00 to 7.00
* CNC(=O)c1cc(Br)cc([N+](=O)[O-])c1N[C@@H]1CCCC[C@@H]1NC(=O)c1cncc(OC)c1 | 5.00 to 6.00
* CNC(=O)c1cc(Br)cc([N+](=O)[O-])c1N[C@@H]1CCCC[C@@H]1NC(=O)c1cccnc1 | 6.00 to 7.00
* O=C(NC1CC(F)(F)C1)c1cc(Br)cc([N+](=O)[O-])c1N1CCC2(CN(C(=O)c3cncc4ccccc34)CC2(F)F)C1 (centres unmarked) | > 7.00
* COC(=O)c1cc(Br)cc([N+](=O)[O-])c1N[C@@H]1CCCC[C@@H]1NC(=O)c1cncc2ccccc12 | 6.00 to 7.00
* O=C(O)c1cc(Br)cc([N+](=O)[O-])c1N[C@H]1CN(C(=O)c2cncc3ccccc23)CCC1(F)F | 6.00 to 7.00
* CNC(=O)c1cc(Br)cc([N+](=O)[O-])c1N[C@@H]1CCCC[C@@H]1NC(=O)c1cncc(CN)c1 | ≤ 5.00
* O=C(NC1CC(F)(F)C1)c1cc(Br)cc([N+](=O)[O-])c1N[C@@H]1COC[C@@H]1NC(=O)c1cncc2ccccc12 | 5.00 to 6.00
* O=C(N[C@@H]1CCNC1)c1cc(Br)cc(C(F)(F)F)c1N[C@H]1CN(C(=O)c2cncc3ccccc23)CCC1(F)F | > 7.00
* CNC(=O)c1cc(Br)cc([N+](=O)[O-])c1NC1CCC2(C1)CN(C(=O)c1cncc3ccccc13)C2 (centres unmarked) | 5.00 to 6.00
* CNC(=O)c1cc(Br)cc([N+](=O)[O-])c1N[C@H]1CN(C(=O)C2CC(=O)NC(=O)C2)CCC1(F)F | 6.00 to 7.00
* CNC(=O)c1cc(Cl)cc([N+](=O)[O-])c1NC(C(C)C)C1CN(C(=O)c2cncc3ccccc23)C1 (centres unmarked) | 6.00 to 7.00
* CC(NC(=O)c1cc(Br)cc([N+](=O)[O-])c1N[C@@H]1CCCC[C@@H]1NC(=O)c1cncc2ccccc12)C(F)(F)F (some centres unmarked) | 6.00 to 7.00
* CNC(=O)c1cc(Br)cc([N+](=O)[O-])c1N[C@@H]1CCCC[C@@H]1NC(=O)c1cncc2ccncc12 | 6.00 to 7.00
* O=C(NC1CC1)c1cc(Br)cc([N+](=O)[O-])c1N[C@@H]1CCCN(C(=O)c2cncc3ccccc23)C1 | > 7.00

// provenance: patent US20260315452A1
